Exercise: for every item that follows, state its recorded pEC50.
System: Hepatitis C virus
procedure summary: Antiviral activity against HCV J8CC infected in human Huh7.5 cells assessed as viral growth inhibition incubated for 48 hrs by light microscopy
Format: functional, organism-based, Hepacivirus hominis
run parameters: Huh7.5, 48 h
Numbers only, as −log10 of the molar value.

1. CC(C)[C@@H]1NC(=O)[C@@H](C[C@@]2(O)c3ccccc3N3C(=O)C(C)(C)N[C@@H]32)n2c1nc1ccccc1c2=O
3.89

Sample CC1(C)C(=O)N2c3ccccc3[C@@]3(C[C@H]4n5c(nc6ccccc6c5=O)C(=O)C(C)(C)[C@@]4(O)O3)[C@@H]2N1S(C)(=O)=O , system: Hepatitis C virus. Its pEC50 is 3.96
